biological target: SARS-COV-2 3CL Protease (Severe acute respiratory syndrome coronavirus 2 (2019-nCoV) (SARS-CoV-2)); test: biochemical; type: biochemical; settings: recombinant MBP-tagged 3CL protease, 30 min preincubation; numeric column
Property measured: IC50 (nM)
Give the value in nM but do not write nM after it.

For orientation, consider the following solved cases.
CC(C)(C)[C@H](NC(=O)C(F)(F)F)C(=O)N1C[C@H]2[C@@H]([C@H]1C(=O)N[C@H](C#N)CC1C(=O)Nc3ncccc31)C2(C)C (stereo partly drawn) [Compound 8]: 33.4
CC1(C)[C@@H]2[C@@H](C(=O)N[C@H](C#N)CC3C(=O)Nc4ccccc43)N(C(=O)[C@@H](NC(=O)C(F)(F)F)C34CC5CC(CC(O)(C5)C3)C4)C[C@@H]21 (stereo partly drawn) [Compound 5]: 69.8

**Q:** I am curious: what IC50 value has been reported for CC1(C)[C@@H]2[C@@H](C(=O)N[C@H](C#N)C[C@@H]3CCNC3=O)N(C(=O)[C@H](Cc3ccc4ccccc4c3)NC(=O)C(F)(F)F)C[C@@H]21 [Compound 4] ?
**A:** 273

---

biological target: SARS-COV-2 3CL Protease (Severe acute respiratory syndrome coronavirus 2 (2019-nCoV) (SARS-CoV-2), UniProt P0DTD1); experiment: biochemical; format: biochemical; conditions: recombinant MBP-tagged 3CL protease, 30 min preincubation; class symbol column
Property measured: IC50

For orientation, consider the following solved cases.
CC1(C)[C@@H]2[C@@H](C(=O)N[C@H](C#N)C[C@@H]3CCNC3=O)N(C(=O)C(NC(=O)C(F)(F)F)C3CC4(CCC4)C3)C[C@@H]21 (some centres unmarked) [Compound 3]: 100 to 1000 nM
CC1(C)[C@@H]2[C@@H](C(=O)N[C@H](C#N)C[C@@H]3CCNC3=O)N(C(=O)[C@H](Cc3ccc4ccccc4c3)NC(=O)C(F)(F)F)C[C@@H]21 [Compound 4]: 100 to 1000 nM
CN(C)CCCC[C@H](NC(=O)C(F)(F)F)C(=O)N1C[C@H]2[C@@H]([C@H]1C(=O)N[C@H](C#N)C[C@@H]1CCNC1=O)C2(C)C [Compound 7]: 1000 to 10000 nM
CC1(C)[C@@H]2[C@@H](C(=O)N[C@H](C#N)CC3C(=O)Nc4ccccc43)N(C(=O)[C@@H](NC(=O)C(F)(F)F)C34CC5CC(CC(O)(C5)C3)C4)C[C@@H]21 (some centres unmarked) [Compound 5]: < 100 nM

Consider the additional compound presented here.
**Q:** I am curious: what IC50 value has been reported for CC(C)(C)[C@H](NC(=O)C(F)(F)Cl)C(=O)N1C[C@H]2[C@@H]([C@H]1C(=O)N[C@H](C#N)CC1C(=O)Nc3ccccc31)C2(C)C (some centres unmarked) [Compound 9] ?
**A:** < 100 nM

---

pIC50 values, listed per item
biological target: SARS-COV-2 3CL Protease (Severe acute respiratory syndrome coronavirus 2 (2019-nCoV) (SARS-CoV-2), UniProt P0DTD1); experiment: biochemical; format: biochemical; conditions: recombinant MBP-tagged 3CL protease, 30 min preincubation; numeric column
Scale: negative log10 of molar concentration, which is what pIC50 denotes.

For orientation, consider the following solved cases.
CC(C)(C)[C@H](NC(=O)C(F)(F)Cl)C(=O)N1C[C@H]2[C@@H]([C@H]1C(=O)N[C@H](C#N)CC1C(=O)Nc3ccccc31)C2(C)C (some centres unmarked): 7.60
CN(C)CCCC[C@H](NC(=O)C(F)(F)F)C(=O)N1C[C@H]2[C@@H]([C@H]1C(=O)N[C@H](C#N)C[C@@H]1CCNC1=O)C2(C)C: 5.95
CC1(C)[C@@H]2[C@@H](C(=O)N[C@H](C#N)C[C@@H]3CCNC3=O)N(C(=O)[C@@H](NC(=O)C(F)(F)F)C34C[C@@H]5C[C@@H](CC(O)(C5)C3)C4)C[C@@H]21: 7.16

**Q:** I am curious: what pIC50 value has been reported for CN(C)C1CCC(C(NC(=O)C(F)(F)F)C(=O)N2C[C@H]3[C@@H]([C@H]2C(=O)N[C@H](C#N)C[C@@H]2CCNC2=O)C3(C)C)CC1 (some centres unmarked) ?
**A:** 6.35

**Q:** I am curious: what pIC50 value has been reported for CC1(C)[C@@H]2[C@@H](C(=O)N[C@H](C#N)C[C@@H]3CCNC3=O)N(C(=O)C(NC(=O)C(F)(F)F)C3CC4(CCC4)C3)C[C@@H]21 (some centres unmarked) ?
**A:** 6.28
